Record: compiled IC50 on DGKζ (Homo sapiens) from multiple reports.
Lab book: enter the figure in µM, no units written.

CC[C@@H]1C[C@@H](c2nc3cc(C)ccc3o2)CCN1c1nc(=O)n(C)c2cc(OC3CCOC3)c(Cl)cc12 (stereo in doubt) = 2.82
N[C@@H]1CC(F)(F)c2cc(F)c(-c3nnc(N4CCCC4)o3)cc2N(Cc2ccc(-n3cnc(C(F)(F)F)n3)cc2)C1=O (single isomer, unassigned) = 11.8
Cc1cnc2ccc(C(C)N3C[C@H](C)N(c4cc(=O)[nH]c5cc(CC#N)nn45)C[C@H]3C)cc2n1 (stereo partly shown) = 0.1

Continue with the next compound.
-- ask So what does the record say about IC50 for CC[C@H]1CN(C(C)c2ccc3nscc3c2)[C@H](CC)CN1c1cc(=O)n(C)c2cn(CC#N)nc12 (stereo partly shown) ?
-- reply 0.01

* * *

Record: compiled IC50 on DGKζ (Homo sapiens, UniProt Q13574) from multiple reports.

Consider the worked cases shown below.
Cc1nc2c(N3C[C@@H](C)N(C(CC(C)C)c4ccc(Cl)c(F)c4)C[C@@H]3C)nc3nncn3c2n1C[C@@H]1CCCO1 (single isomer, unassigned) = ≤ 20 nM
CC[C@@H]1CN(c2nc(=O)n(C)c3ccc(C#N)nc23)[C@@H](C)CN1[C@H](c1ccc(F)cc1)c1ccc(SC(F)(F)F)cn1 = < 100 nM

-- ask So what does the record say about IC50 for N[C@@H]1CC(F)(F)c2cc(F)c(-c3nnc(N4CCC(F)(F)CC4)o3)cc2N(Cc2ccc(-c3noc(C(F)(F)F)n3)cc2)C1=O (single isomer, unassigned) ?
-- reply 1810 nM

-- ask So what does the record say about IC50 for C[C@@H]1CN(c2nc3nncn3c3c2nnn3C[C@H]2CCCO2)[C@@H](C)CN1C(c1ccc(F)cc1)c1ccc(F)cc1 ?
-- reply ≤ 20 nM

-- ask So what does the record say about IC50 for CC[C@H]1CN([C@@H](c2ccc(S(F)(F)(F)(F)F)cc2)c2nc(C3CC3)cs2)[C@H](CC)CN1c1nc(=O)n(C)c2ccc(C#N)nc12 ?
-- reply < 100 nM

-- ask So what does the record say about IC50 for CC[C@H]1CN(C(c2ccc(S(F)(F)(F)(F)F)cc2)C2CC2)[C@H](CC)CN1c1nc(=O)n(C)c2ccc(C#N)nc12 (single isomer, unassigned) ?
-- reply 100 to 1000 nM

-- ask So what does the record say about IC50 for CC[C@@H]1CN(c2nc3nncn3c3ccc(C#N)nc23)[C@@H](C)CN1[C@H](CC)c1ccc(S(F)(F)(F)(F)F)cc1 (stereo in doubt) ?
-- reply 100 to 1000 nM

-- ask So what does the record say about IC50 for Cc1nc2c(N3C[C@@H](C)N(Cc4ccc(C(F)(F)F)cc4F)C[C@@H]3C)nc3nncn3c2n1C[C@@H]1CCCO1 ?
-- reply ≤ 20 nM

-- ask So what does the record say about IC50 for Cc1nc2c(N3C[C@@H](C)N(C(c4ccc(Cl)cc4)[C@@H]4CC4(F)F)C[C@@H]3C)nc3nncn3c2n1C[C@@H]1CCCO1 (single isomer, unassigned) ?
-- reply ≤ 20 nM

-- ask So what does the record say about IC50 for CC[C@H]1CN(C(C)c2ccc(OC)nc2)[C@H](CC)CN1c1cc(=O)n(C)c2cn(CC#N)nc12 (some centres unmarked) ?
-- reply 151 nM

-- ask So what does the record say about IC50 for CC[C@H]1CN(C(C)c2ccn3nc(Cl)c(F)c3n2)[C@H](CC)CN1c1nc(=O)n(C)c2cc(CC#N)nn12 (some centres unmarked) ?
-- reply 38 nM
